Molecular target: T1, RTEL1 HHD2 (Homo sapiens, UniProt Q9NZ71-6 1056-1140)
T1 sequence: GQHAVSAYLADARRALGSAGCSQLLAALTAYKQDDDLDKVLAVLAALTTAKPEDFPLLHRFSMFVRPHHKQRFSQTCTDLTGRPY
Assay: ITC; pH 6.5; NMR: 20 mM Tris-HCl pH 7.4, 50 mM NaCl, 2 mM DTT, 0.02% NaN3, 10% D2O, 25 C (one ssDNA-22 titration at pH 6.5); ITC: 10 mM potassium phosphate pH 6.5, 50 mM KCl, 0.02% NaN3, 25 C
Conditions: protein: recombinant; tags: N-terminal 6xHis; single strand
Experimental readout: Kd (µM)
Your answer is read as µM, so omit the unit and give the number.

                                     binder  reported_measurement
0  AGGATTAGGATTAGGATTAGGA (ssDNA) [ssDNA-22]                  0.94
1           TTAGGATTAGGA (ssDNA) [ssDNA-12]                  1.51

Recorded Kd of TTAGGCAGAGAGAGAGAGTTAGGC (ssDNA) [ssDNA-24] , please.
1.32
